biological target: FP prostanoid receptor; assay: FP-activity: contraction of the isolated feline iris sphincter; details: concentration producing 50% of maximal response; read-out: EC50 at FP (Cat Iris)
pEC50: −log10 of the molar value.
property.measured: pEC50

P: CCCCC[C@H](O)/C=C/[C@@H]1[C@@H](C/C=C\CCCCO)[C@@H]2C[C@H]1OC(=O)O2 [Example 4]
Q: CCCCCC(O)/C=C/C1C2CC(OC(=O)O2)C1C/C=C\CCCC(=O)NC(C)C (stereo not shown) [Example 17]
Data request: Look at P and Q . Which one has the lower recorded pEC50 number? Your choice should be expressed through its label.
Data returned: Q

Hey, just so you know, these numbers are from patent US20030109571A1.
